# Protocol description: Plasma concentration in CF1 mouse at 30 mg/kg, po after 4 hrs
# Assay type: ADME, organism-based
# Set-up: dose 30 mg/kg, route oral
Readout type: concentration at 4 h (µM)

Examples with answers:
molecule="CC(C(=O)O)c1ccc(C(c2ccc(F)cc2)N2CC3CCC(C3)C2)c(-c2ccc(C(F)(F)F)cc2)c1 (stereo not drawn)" quantitative_readout=10.7
molecule="CC1CCN(C(c2ccc(C(F)(F)F)nc2)c2ccc(C(C)C(=O)O)cc2-c2ccc(C(F)(F)F)cc2)CC1 (stereo not drawn)" quantitative_readout=25.2
molecule="CC(C(=O)O)c1ccc(C(c2ccc(F)cc2)N2CCC(C)(C)CC2)c(-c2ccc(C(F)(F)F)cc2)c1 (stereo not drawn)" quantitative_readout=27.2
molecule="CC1CCN(C(c2ccc(F)cc2)c2ccc(C(C)C(=O)O)cc2-c2ccc(C(F)(F)F)cc2)CC1 (racemic)" quantitative_readout=27.2
molecule="CC1CCN(C(c2ccc(Cl)cc2)c2ccc(C(C)C(=O)O)cc2-c2ccc(C(F)(F)F)cc2)CC1 (stereo not drawn)" quantitative_readout=27.1

(P) CCC(C(=O)O)c1ccc(C(c2ccc(F)cc2)N2CCC(C)CC2)c(-c2ccc(C(F)(F)F)cc2)c1 (stereo not drawn)
(Q) CC1CCN(C(c2ccc(F)cc2)c2ccc(C(CC3CC3)C(=O)O)cc2-c2ccc(C(F)(F)F)cc2)CC1 (stereo not drawn)
Lower value of concentration at 4 h belongs to which: P or Q ? Field: selected label. Fill in the label of the entry you choose.
P
(P: 20.4 µM, Q: 29.6 µM)

Cited source for all entries: ChEMBL document CHEMBL2146445
